system: HSC-2; experiment: Cytotoxic activity (MTT) against OSCC cell line HSC-2; format: cell-based, human; conditions: tumour specificity = mean CC50 normal cells (HGF, HPLF) / CC50 HSC-2
measured quantity: TS (B/A)

Use the examples below as a reference point.
O=C(C=Cc1cccc(O)c1)c1ccc2[nH]c(=O)oc2c1: 7.7
CC(C)c1ccc(C=CC(=O)c2ccc3[nH]c(=O)oc3c2)cc1: 6.4

Now look at this entry.
Ask: I would be grateful if you could share the reported TS (B/A) for Cc1ccc(C=CC(=O)c2ccc3[nH]c(=O)oc3c2)cc1 .
Reply: 9.5

###

tested on: HSC-2; experiment: Cytotoxic activity (MTT) against OSCC cell line HSC-2; type: cell-based, human; details: Homo sapiens; HSC-2, 48 h incubation, MTT, triplicate
measured quantity: CC50 (µM)
Write the number in µM without appending the unit.

Ask: Dear colleague, I am looking for the recorded CC50 of the following molecule: O=c1[nH]cc(F)c(=O)[nH]1 [Compound 5-FU, 5-Fluorouracil, reference compound]
Reply: 37.7
